# System: HS 578T breast
# assay: NCI-60 one-dose screen, 48 h (100 = growth as untreated, 0 = no growth, -100 = all killed)
# condition.notes: 10 µM unless noted
# Procedure: Growth inhibition of the HS 578T human tumor cell line is measured as a screen for anti-cancer activity. Cells are grown in 96 well plates and exposed to the test compound for 48 hours. Compounds are tested at a single concentration, which is 10^-5 M for most compounds. The reported endpoint is percent growth (GI% or GIPRCNT), where numbers from 0 - 100% represent growth inhibition, and numbers from -100% - 0 represent cell death. For example, a value of 40 represents 60% growth inhibition. […]
About 83,000 compounds went through this panel and 20% of them were active in at least one assay; those are over-represented in the sample as a whole. The source made the active and inactive calls. Rule for the calls: active = growth percent below 10; inactive = the rest.
experimental.endpoint: growth

Below, 5 compounds whose answers are already recorded.
input: Need growth of O=[N+]([O-])c1ccc(NC(=S)NNC(=S)Nc2ccc(F)cc2)cc1 , thanks.
output: 102% (inactive)

input: # input compound: Fc1ccc2nc(-c3cnn4cccnc34)sc2c1 ; wanted: its growth
output: 90.1% (inactive)

input: Look up growth: CCn1c2ccc(/C=N/N(C)S(=O)(=O)CCN(C)C)cc2c2cc(/C=N/N(C)S(=O)(=O)CCN(C)C)ccc21
output: 76.8% (inactive)

input: I'd like to know its growth. The compound in question is O=C1[C@H]2Cc3c([nH]c4ccccc34)[C@H](c3ccc(Cl)cc3)N2C(=O)CN1C1CCN(CC2CCCCC2)CC1
output: 74.4% (inactive)

input: I'd like to know its growth. The compound in question is C#Cc1nc(/C=C\CCCCCCC(=O)NO)cs1
output: 64.9% (inactive)

# ---- query compound ----
input: Requested read-out: growth. Entry: CNC(=O)Nc1ccc(Nc2cc(-c3ccc(-n4cccn4)cc3)[nH]n2)c(C)c1
output: 116% (inactive)

----------
Entries and their measured growth follow.
# Tested on: SN12C renal
# assay: NCI-60 one-dose screen, 48 h (100 = growth as untreated, 0 = no growth, -100 = all killed)
# condition.notes: 10 µM unless noted
Compounds without any hit were thinned out: in the full panel of roughly 83,000, 20% have a hit.
Expressed in %, but write only the number.

Would you please look over these solved cases?
input: Give its growth value. Item: COc1cc(C(=O)c2cc(C(C)=O)c3c(C)cccn23)cc(OC)c1OC
output: 80.9

input: Given the entry COc1cc2oc(-c3cccc(NC(=O)c4cccc([N+](=O)[O-])c4)c3)cc(=O)c2c(OC)c1OC , report its measured growth.
output: 40.2

input: // growth lookup, key: Clc1ccc2[nH]cc(-c3nn4cc(-c5ccncc5)nc4s3)c2c1
output: 33.9

input: Which growth is reported for this molecule? Cc1ccc(NC(=O)Nc2nc3ccc([N+](=O)[O-])cc3s2)cc1
output: 3.41

input: Fill in: growth of CCOC(=O)c1ccccc1NC1=C(Cl)C(=O)c2nc(C)ccc2C1=O is ___
output: 88.2

Continuing:
input: # query: growth of entry Cc1ccccc1NC(=O)Nc1nc2ccc([N+](=O)[O-])cc2s1
output: 6.76

input: Which growth is reported for this molecule? N#C/C(=N\Nc1ccc(F)cc1)C(=O)Nc1cc(-c2ccccc2)nn1-c1ccccc1
output: 1.17

All figures here come from PubChem BioAssay (NCI).
